# Test system: CCRF-CEM leukemia
# experimentNotes: NCI-60 one-dose screen, 48 h (100 = growth as untreated, 0 = no growth, -100 = all killed)
# conditionNotes: 10 µM unless noted
About 83,000 compounds went through this panel and 20% of them were active in at least one assay; those are over-represented in the sample as a whole. The source made the active and inactive calls. How the source made its calls: active means growth percent below 10; inactive means the rest.
endpointLabel: growth

* Cc1cccc(N(C)c2cccc3c2C(=O)[Se]C3)c1C | 56.1% (inactive)
* Oc1ccccc1OB(Oc1ccccc1O)N(CCCl)CCCl | 18.4% (inactive)
* Nc1cccc2c1Oc1ccccc1O2 | 87.7% (inactive)
* C/C(=C\C(=O)O[C@H]1[C@@H]2[C@H](C)CC[C@H]2[C@]2(C)O[C@@]1(C1CCCCC1)C[C@H]2OC(=O)CO)c1ccccc1 | 7.86% (active)
* O=[As]c1ccc(C(=O)c2ccc(Oc3ccccc3)cc2)cc1 (stereo unspecified) | -33.1% (active)
* Oc1ccc(Br)cc1CN1CCN(Cc2ccc(Cl)cc2)CC1 | 26.7% (inactive)
* S=P(NC1CCCCC1)(N1CC1)N1CC1 | 102% (inactive)
* CCOc1ccc(C(O)CN(C)Cc2ccccc2)cc1Cl (stereo unspecified) | 108% (inactive)
* CCCC(C)(C)c1ccc2c(c1)OC(C)(C)[C@@H]1CC=C(C)C[C@@H]21 | 84.2% (inactive)
* Cc1nnc([S-])s1.[Au+].c1ccc([PH+](c2ccccc2)c2ccccc2)cc1 | 0.579% (active)
* Nc1c(Br)cc2c3c(cccc13)-c1ccccc1-2 | 48.8% (inactive)
* NC(Cc1ccc2c(c1)OCO2)c1ccc2c(c1)OCO2 (stereo unspecified) | 98.2% (inactive)
* O=C1NC(=O)C(O)(C2(O)C(=O)NC(=O)NC2=O)C(=O)N1 | 70.1% (inactive)
* CC1(C)N=C(N)N=C(N)N1c1ccc(CCCCc2ccc(S(=O)(=O)F)cc2)cc1 | 23.4% (inactive)
* CNc1ccc(C(=O)CC(O)CCC(C)C2OC(=O)CC(O)CC(=O)CC(O)CC(O)CC(O)CC(O)CC3(O)CC(O)C(C(=O)OC)C(CC(O[C@@H]4O[C@H](C)[C@@H](O)[C@H](N)[C@@H]4O)/C=C/C=C/C=C/C=C/C=C/C=C/C=C/C2C)O3)cc1 (stereo partly specified) | 14.9% (inactive)
* COc1cc(NCCCCCN=C(N)N)c2ncccc2c1 | 39.8% (inactive)
* CC(=O)[O][Hg][CH2]C1(C)COC(C)([CH2][Hg][O]C(C)=O)CO1 (stereo unspecified) | -65.3% (active)
* CC1(C)N=C(N)N=C(N)N1c1ccc(OCCCCOc2ccc(S(=O)(=O)F)cc2)c(Cl)c1 | 16% (inactive)
* CSc1ccccc1NP1(=O)OCC(C)([N+](=O)[O-])CO1 (stereo unspecified) | 80.8% (inactive)
* CCC(C)(C)O | 6.63% (active)
* CC(=O)N1N=C(c2ccccc2)CC1c1sc(N(CCCl)CCCl)nc1Cl (stereo unspecified) | 93.5% (inactive)

###

# Test system: HL-60(TB) leukemia
# experimentNotes: NCI-60 one-dose screen, 48 h
# conditionNotes: 10 µM unless noted
The panel holds about 83,000 compounds, 20% with a hit somewhere; the sample as a whole holds those more often. Active and inactive are the calls of the source. How the source made its calls: active means growth percent below 10; inactive means the rest.
Outcome codes: label 1 = active, label 0 = inactive

• O=C(Nc1ccc(Cl)c(Cl)c1)O/N=C\c1c(Cl)ccc([N+](=O)[O-])c1Cl = label 1
• O=C1C=CC2(NN=C(c3ccccc3)N2c2cccc(Cl)c2)C(Cl)=C1 (stereo not given) = label 0
• COc1cc(C2C(C#N)=C(N)Oc3cc(O)ccc32)cc(OC)c1OC (stereo not given) = label 1
• C/C(=N\NC(=O)CSc1nc2ccccc2c(=O)n1CCc1ccc(S(N)(=O)=O)cc1)c1ccccn1 = label 0
• COc1nc(N)nc2c1ncn2C1OC(CO)CC1O (stereo not given) = label 0

###

# Tested on: HL-60(TB) leukemia
# experimentNotes: NCI-60 one-dose screen, 48 h
# conditionNotes: 10 µM unless noted
The panel holds about 83,000 compounds, 20% with a hit somewhere; the sample as a whole holds those more often. Calls of active or inactive are those of the source. Rule for the calls: active = growth percent below 10; inactive = the rest.
Outcome codes: active, inactive

* CNC(=O)OC1C(O[C@H]2C[C@H]3[C@@H]4CC=C5C[C@@H](O)CC[C@]5(C)[C@H]4CC[C@]3(C)[C@H]2[C@H](C)C(=O)CCC(C)C)OCC(O)C1OC1OCC(O)C(O)C1OC(=O)c1ccc(OC)cc1 (some centres undefined) | active
* NC(=O)c1ccc[n+](CC(=O)N2CCN(c3cc4c(cc3F)c(=O)c(C(=O)O)cn4C3CC3)CC2)c1 | inactive
* COc1ccc2c(c1)c(-c1nc(-c3c[nH]c4ncccc34)cs1)cn2CCN | inactive
* O=c1nc(NO)[nH]c(=O)n1Cc1ccc(F)cc1 | inactive
* C=C1C(=O)O[C@H]2[C@H]1CC/C(CNC(=O)c1c[nH]c3ccc(F)cc13)=C\CC[C@@]1(C)O[C@@H]21 | active
* COc1ccccc1/C=C1\COc2ccc(-c3ccccc3)cc2C1=O | active
* COc1cc(/C(=C2/O[C@@H]([C@H]3COC(C)(C)O3)[C@H]3OC(C)(C)O[C@@H]23)c2ccc3c(c2)OCO3)cc(OC)c1OC | inactive
* C=C1C(=O)O[C@H]2[C@H]1CC/C(COC(=O)NCc1ccc(OC)c(OC)c1)=C\CC[C@@]1(C)O[C@@H]21 | inactive
* CCN(CC)CCOc1ccc(/C(=C(\C)c2ccc(F)c(OC)c2)c2ccc(Cl)cc2)cc1 | active
* Cc1cc(Oc2ccccc2)ccc1Nc1ncnc2ccc(-c3cnc(Cl)c(NS(C)(=O)=O)c3)cc12 | inactive
* O=C(Nc1cc(=O)[nH]c(=O)[nH]1)C(Cl)Cl | inactive
* O=C(O)Cc1ccc(Cl)cc1 | inactive
* c1ccc(Cn2cnc3ccc(-c4nc(-c5ccc6c(c5)ncn6C5CCCCC5)cn5ccnc45)cc32)cc1 | active
* c1ccc2cc(Cn3cc(CSc4nc5ccccc5s4)nn3)ccc2c1 | inactive
* CNC(=O)c1cc(Oc2ccc3c(c2)sc2nc(-c4ccc(NC(=O)[C@@H](NC(=O)OC)C(C)C)cc4)cn23)ccn1 | inactive
* COc1cc(OC)cc(C(=O)C[n+]2cccc3cc[nH]c32)c1 | inactive
* CCN(CCNc1ccc(C)c2sc3cc(Cl)ccc3c(=O)c12)CC(C)O (centres undefined) | active
* CCCCCCCc1n(Cc2ccc3ccccc3c2)c2ccccc2[n+]1Cc1ccc2ccccc2c1 | active
* C=C(C)C1CCC2(C)OC2C1 (centres undefined) | inactive

###

# Test system: HL-60(TB) leukemia
# experimentNotes: NCI-60 one-dose screen, 48 h (100 = growth as untreated, 0 = no growth, -100 = all killed)
# conditionNotes: 10 µM unless noted
The panel holds about 83,000 compounds, 20% with a hit somewhere; the sample as a whole holds those more often.
growth values by entry
endpointLabel: growth (%)

* CCc1nc(C)cn1C(=O)OCc1nc2nc(Cl)nc(N3CCOCC3)c2[nH]1 | -23.1
* O=S(=O)(c1ccccc1)n1cc2c(c1-c1ccccc1)CCc1sc(Nc3ccccc3)nc1-2 | 94.1
* CC(C)c1ccc2occ(C=C3C(=O)NC(=O)NC3=O)c(=O)c2c1 | 74.8
* COc1ccc(C2=Nc3c(N)nc(N)nc3NC(c3cccc(Nc4ccnc5cc(C(F)(F)F)ccc45)c3)C2)cc1 (stereo unspecified) | 81.6
* COc1cc(/C=C/C(=O)c2c(C)oc3nc[nH]c(=O)c23)ccc1O | 117
* c1ccc(-c2n[nH]c(-c3ccccn3)n2)nc1 | 105
* CCOC(=O)CSc1c(-c2ccccc2)c2cc(Cl)ccc2[nH]c1=O | 84.7
* CCCCCC1CCCCN1C(=O)OCC (stereo unspecified) | 77.5
* Cc1nc([N+](=O)[O-])c(Sc2nncc(-c3ccccc3)n2)n1C | 91.7
* COc1cc2nc(SCc3cc(OC)c(OC)c(OC)c3)n(Cc3ccccc3)c(=O)c2cc1OC | 11.9
* COc1cccc(CCNc2ncnc3c2ncn3Cc2nnc3c4ccccc4c(Cl)nn23)c1 | 57.5
* CCN1CCCC(N2c3ccccc3Sc3ccccc32)C1 (stereo unspecified) | 93.1
* COc1cc(NC(=O)CCSc2nc3ccc(Cl)cc3c(=O)n2Cc2ccccc2)cc(OC)c1OC | 99.6
* N#Cc1c(NC(=O)NCc2ccccc2)sc2c1CCCCC2 | -8.46
* Cc1ccc2c(O)c(O)cc(NC(C)CCCN)c2n1 (stereo unspecified) | 28.3
* Cc1ccc(Oc2c(/C=N/NC(=O)Cn3c(=O)sc4ccccc43)c(C)nn2-c2ccccc2)cc1 | 4.2
* O=C1C(Cl)=C(Nc2ccccc2)C(=O)C(Cl)=C1Nc1ccccc1 | 122
* CO[C@H]1/C=C/O[C@@]2(C)Oc3c(C)c(O)c4c(O)c(c(/C=N/N5C(C)CN(Cc6ccc(C#N)cc6)CC5C)c(O)c4c3C2=O)NC(=O)/C(C)=C\C=C\[C@H](C)[C@H](O)[C@@H](C)[C@@H](O)[C@@H](C)[C@H](OC(C)=O)[C@@H]1C (stereo partly specified) | -37
* COc1ccc(C(=O)COc2cccc(/C=C3\Cc4ccccc4C3=O)c2)cc1 | 73.4
* FC(F)(F)c1ccc(-c2cnc(Cl)nc2N2CCC3(CC2)OCCO3)cc1 | 83.6
* COc1cccc(N2CCN(c3ncnc4cc[nH]c34)CC2)c1 | 71.3

FYI, the data here is from PubChem BioAssay (NCI).
